Reported Selectivity for ROCK2 over ROCK1 (IC50 ROCK1 / IC50 ROCK2) values are given for each entry in this list.
# system.under.test: GST-tagged human ROCK2 catalytic domain 1-553 (Homo sapiens (Human))
# Sequence (O75116 1-553): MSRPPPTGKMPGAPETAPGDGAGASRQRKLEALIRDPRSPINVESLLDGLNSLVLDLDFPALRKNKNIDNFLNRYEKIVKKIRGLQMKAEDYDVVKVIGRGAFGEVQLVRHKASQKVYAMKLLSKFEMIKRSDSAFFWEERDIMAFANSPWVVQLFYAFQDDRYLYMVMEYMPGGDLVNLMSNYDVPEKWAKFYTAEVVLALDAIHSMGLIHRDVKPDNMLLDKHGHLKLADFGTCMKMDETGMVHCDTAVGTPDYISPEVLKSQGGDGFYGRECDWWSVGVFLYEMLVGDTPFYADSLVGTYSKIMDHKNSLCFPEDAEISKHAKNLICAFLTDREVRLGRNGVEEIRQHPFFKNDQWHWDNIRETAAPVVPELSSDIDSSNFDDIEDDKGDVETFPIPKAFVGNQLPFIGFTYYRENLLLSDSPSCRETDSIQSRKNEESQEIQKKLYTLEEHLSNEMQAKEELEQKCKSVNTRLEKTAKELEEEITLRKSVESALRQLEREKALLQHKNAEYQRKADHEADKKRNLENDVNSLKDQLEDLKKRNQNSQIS
# protocol.text: Inhibition of Rho-associated protein kinase isoform 2 (LANCE Ultra ULight-CREBtide FRET kinase assay)
# Type: biochemical
# test.context: selectivity ROCK2 vs ROCK1
measured.metric: Selectivity for ROCK2 over ROCK1 (IC50 ROCK1 / IC50 ROCK2)

> print(dat)
                                   molecule  meas.value
1  Cn1cc(CC(=O)Nc2cc(-c3nnc(Nc4ccc5[nH]ncc5c4Cl)s3)ccn2)cn1          >5
2  COc1cccc(-c2cccc(-c3nnc(Nc4ccc5[nH]ncc5c4Cl)s3)c2)n1 [Example 46H]        >100
3  Nc1cccc(-c2nnc(Nc3ccc4[nH]ncc4c3)s2)n1.O=C(O)C(F)(F)F [Example 35CR]          >5
4  CC(=O)Nc1ccc(S(C)(=O)=O)c(-c2nnc(Nc3ccc4[nH]ncc4c3Cl)s2)c1 [Example 48E]          <5
5   COc1cccc(-c2nnc(Nc3ccc4[nH]ncc4c3)s2)c1        >100
6  c1cc(-c2nnc(Nc3ccc4[nH]ncc4c3)s2)c2nccn2c1          >5
7  OCCN(c1ccc2[nH]ncc2c1)c1nnc(-c2cnccn2)s1          <5
8  CC(=O)Nc1cc(-c2nnc(Nc3ccc4[nH]ncc4c3Cl)s2)ccc1C(F)(F)F [Example 48O]        >100
